biological target: Phosphatidylinositol 4,5-bisphosphate 3-kinase catalytic subunit alpha isoform (Homo sapiens, UniProt P42336); experiment: Inhibition of human PI3Kalpha by ELISA
Sequence (P42336 whole entry, canonical isoform): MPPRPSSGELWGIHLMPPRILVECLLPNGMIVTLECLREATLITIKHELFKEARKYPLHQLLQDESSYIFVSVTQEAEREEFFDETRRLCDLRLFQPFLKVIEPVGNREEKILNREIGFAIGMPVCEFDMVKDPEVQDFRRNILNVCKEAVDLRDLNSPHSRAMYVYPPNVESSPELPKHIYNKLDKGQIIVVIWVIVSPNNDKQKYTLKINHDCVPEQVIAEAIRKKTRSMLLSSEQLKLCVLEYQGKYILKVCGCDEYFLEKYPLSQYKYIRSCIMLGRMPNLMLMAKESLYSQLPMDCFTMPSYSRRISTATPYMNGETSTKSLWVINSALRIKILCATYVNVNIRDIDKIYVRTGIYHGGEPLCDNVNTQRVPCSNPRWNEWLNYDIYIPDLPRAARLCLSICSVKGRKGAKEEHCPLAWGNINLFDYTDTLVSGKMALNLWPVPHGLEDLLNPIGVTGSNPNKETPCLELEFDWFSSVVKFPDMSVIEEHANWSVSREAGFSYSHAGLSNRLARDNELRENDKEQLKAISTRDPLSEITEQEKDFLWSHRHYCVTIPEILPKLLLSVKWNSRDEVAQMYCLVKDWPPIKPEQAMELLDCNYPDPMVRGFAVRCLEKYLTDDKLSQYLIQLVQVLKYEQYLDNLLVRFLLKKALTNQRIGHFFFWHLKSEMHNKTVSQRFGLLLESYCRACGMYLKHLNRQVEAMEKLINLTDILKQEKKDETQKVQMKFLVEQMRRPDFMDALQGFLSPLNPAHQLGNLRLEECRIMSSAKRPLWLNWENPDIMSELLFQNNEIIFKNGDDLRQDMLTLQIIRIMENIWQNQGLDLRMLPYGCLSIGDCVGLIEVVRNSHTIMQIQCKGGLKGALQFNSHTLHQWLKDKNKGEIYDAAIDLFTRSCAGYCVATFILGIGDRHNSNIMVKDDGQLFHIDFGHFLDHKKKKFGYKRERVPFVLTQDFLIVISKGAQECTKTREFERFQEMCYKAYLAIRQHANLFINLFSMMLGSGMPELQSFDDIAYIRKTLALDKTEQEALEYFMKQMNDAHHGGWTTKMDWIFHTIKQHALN
measured_quantity: IC50 (µM)
Kindly answer with a numeric value in µM, unit omitted.

Sample answers from the record:
C/C(=N\Nc1nc(C)cs1)c1cc2ccccc2o1; 20.5
CCOC(=O)Cc1csc(N/N=C(\C)c2cc3ccccc3o2)n1; 7.8

QUERY: Quick one: IC50 of C/C(=N\Nc1nc(-c2ccccc2)cs1)c1cc2ccccc2o1 ?
RESULT: 4.1

---

tested on: Bacillus cereus; assay: Antibacterial activity against Bacillus cereus UW85 assessed as reduction in bacterial growth incubated for 18 hrs by two-fold serial dilution method; assay type: functional
measured_quantity: MIC
Put your answer as a value accompanied by its unit after it.

C/C(=N\Nc1nc(C)cs1)c1cc2ccccc2o1; 128 µg/mL
O=CC(/N=N/c1ccc(Cl)cc1)=C(\O)c1cc2ccccc2o1; 256 µg/mL
COc1ccc(/N=N/C(C=O)=C(/O)c2cc3ccccc3o2)cc1; 265 µg/mL

QUERY: Quick one: MIC of Cc1ccc(/N=N/C(C=O)=C(/O)c2cc3ccccc3o2)cc1 ?
RESULT: 256 µg/mL

QUERY: What about this compound? CC1(C)S[C@@H]2[C@H](NC(=O)[C@H](N)c3ccccc3)C(=O)N2[C@H]1C(=O)O
RESULT: 128 µg/mL

The origin of these recorded values is ChEMBL document CHEMBL4680335.
